- Target: Kgp (Porphyromonas gingivalis, UniProt P72197)
- Protocol: Lysine gingipain (Kgp) fluorogenic inhibition assay
- Type: biochemical
- Run parameters: Kgp IC50 average, 0.1 nM Kgp, 10 uM Z-His-Glu-Lys-MCA, 90 minutes, 37° C.

Molecule: NCCCC[C@H](NC(=O)C1CCOCC1)C(=O)c1nc2ccccc2s1
IC50: 0.01 to 0.025 µM

Molecule: NCCCC[C@H](NC(=O)C1CCCO1)C(=O)c1nc2ccccc2s1 (single isomer, unassigned)
IC50: 0.001 to 0.01 µM

Molecule: CC(=O)N1CCC[C@@H](C(=O)N[C@H](CCCCN)C(=O)c2nc3ccccc3s2)C1
IC50: 0.001 to 0.01 µM

Molecule: NCCCC[C@H](NC(=O)C1CCCC1)C(=O)c1nccs1
IC50: 0.05 to 0.1 µM

Molecule: NCCCC[C@H](NC(=O)C1CCCCO1)C(=O)c1nc2ccccc2s1 (single isomer, unassigned)
IC50: 0.025 to 0.05 µM

Molecule: NCCCCC(NC(=O)[C@@H]1CCCN(C(=O)CCc2ccccc2)C1)C(=O)c1nc2ccccc2s1 (single isomer, unassigned)
IC50: 0.001 to 0.01 µM

Molecule: NCCCC[C@H](NC(=O)c1cccnc1)C(=O)c1nc2ccccc2s1
IC50: 0.025 to 0.05 µM

Molecule: CC(=O)N1CCC[C@H](C(=O)N[C@@H](CCCCN)C(=O)c2nc3ccccc3s2)C1
IC50: 0.01 to 0.025 µM

Molecule: NCCCC[C@H](NC(=O)c1ccccn1)C(=O)c1nc2ccccc2s1
IC50: 0.05 to 0.1 µM

Molecule: NCCCC[C@H](NC(=O)C1CCCc2ccccc21)C(=O)c1nc2ccccc2s1 (stereo partly shown)
IC50: 0.01 to 0.025 µM

Molecule: NCCCC[C@H](NC(=O)c1ccccc1C(F)(F)F)C(=O)c1nc2ccccc2s1
IC50: 0.025 to 0.05 µM

Molecule: NCCCC[C@H](NC(=O)[C@@H]1CCCN(C(=O)CCc2ccccc2)C1)C(=O)c1nc2ccccc2s1
IC50: 0.001 to 0.01 µM

Molecule: NCCCC[C@H](NC(=O)C1CCCOC1)C(=O)c1nc2ccccc2s1 (single isomer, unassigned)
IC50: 0.01 to 0.025 µM

Molecule: NCCCC[C@H](NC(=O)c1ccncc1)C(=O)c1nc2ccccc2s1
IC50: 0.025 to 0.05 µM

Molecule: CC1(C(=O)N[C@@H](CCCCN)C(=O)c2nc3ccccc3s2)CCCCC1
IC50: 0.001 to 0.01 µM

Molecule: CC(=O)N1CCC[C@@H](C(=O)N[C@@H](CCCCN)C(=O)c2nc3ccccc3s2)C1
IC50: 0.001 to 0.01 µM

----------
- Target: Kgp (Porphyromonas gingivalis)
- Protocol: Lysine gingipain (Kgp) fluorogenic inhibition assay
- Type: biochemical
- Run parameters: read-out: Kgp IC50 average; 0.1 nM Kgp, 10 uM Z-His-Glu-Lys-MCA, 90 minutes, 37° C.
Property label: IC50

Compound: NCCCCC(NC(=O)[C@@H]1CCCN(C(=O)CCc2ccccc2)C1)C(=O)c1nc2ccccc2s1 (single isomer, unassigned)
Target: Kgp (Porphyromonas gingivalis)
Property label: IC50
Measured value: 1 to 10 nM
//
Compound: NCCCC[C@H](NC(=O)C1CCCCO1)C(=O)c1nc2ccccc2s1 (single isomer, unassigned)
Target: Kgp (Porphyromonas gingivalis)
Property label: IC50
Measured value: 25 to 50 nM
//
Compound: NCCCC[C@H](NC(=O)C1CCCOC1)C(=O)c1nc2ccccc2s1 (single isomer, unassigned)
Target: Kgp (Porphyromonas gingivalis)
Property label: IC50
Measured value: 10 to 25 nM
//
Compound: NCCCC[C@H](NC(=O)C1CCCO1)C(=O)c1nc2ccccc2s1 (single isomer, unassigned)
Target: Kgp (Porphyromonas gingivalis)
Property label: IC50
Measured value: 1 to 10 nM

----------
- Target: UniProt:P72197
- Protocol: Lysine gingipain (Kgp) fluorogenic inhibition assay
- Format: biochemical
- Run parameters: Kgp IC50, figure legend

Compound structure: NCCCC[C@H](NC(=O)C1CCCCC1)C(=O)c1nc2ccccc2s1
IC50: 1 to 10 nM

Compound structure: NCCCC[C@H](NC(=O)[C@@H]1CCCN(C(=O)CCc2ccccc2)C1)C(=O)c1nc2ccccc2s1
IC50: 1 to 10 nM

Compound structure: NCCCC[C@H](NC(=O)[C@H]1CCCN(C(=O)CCc2ccccc2)C1)C(=O)c1nc2ccccc2s1
IC50: 10 to 25 nM

----------
Item-by-item account of IC50
- Target: Kgp (Porphyromonas gingivalis)
- Protocol: Lysine gingipain (Kgp) fluorogenic inhibition assay
- Format: biochemical
- Run parameters: Kgp IC50 average, 0.1 nM Kgp, 10 uM Z-His-Glu-Lys-MCA, 90 minutes, 37° C.

Compound structure: NCCCC[C@H](NC(=O)C1CCCC1)C(=O)c1ccccn1
IC50: > 250 nM
--
Compound structure: NCCCC[C@H](NC(=O)C1CCCC1)C(=O)c1nc2ccccc2s1
IC50: 1 to 10 nM
--
Compound structure: COC1(C(=O)N[C@@H](CCCCN)C(=O)c2nc3ccccc3s2)CCCCC1
IC50: 10 to 25 nM
--
Compound structure: NCCCC[C@H](NC(=O)c1cccc(=O)[nH]1)C(=O)c1nc2ccccc2s1
IC50: 25 to 50 nM

----------
- Target: Kgp (Porphyromonas gingivalis, UniProt P72197)
- Protocol: Lysine gingipain (Kgp) fluorogenic inhibition assay
- Type: biochemical
- Run parameters: Kgp IC50 average, 0.1 nM Kgp, 10 uM Z-His-Glu-Lys-MCA, 90 minutes, 37° C.

Compound: NCCCC[C@H](NC(=O)OCc1ccccc1)C(=O)c1nc2ccccc2s1 [Compound 23]
IC50: 0.1 to 0.25 µM
//
Compound: NCCCC[C@H](NC(=O)C1CCc2ccccc2C1)C(=O)c1nc2ccccc2s1 (some centres unmarked) [Compound 32]
IC50: 0.001 to 0.01 µM
//
Compound: NCCCC[C@H](NC(=O)c1nccs1)C(=O)c1nc2ccccc2s1 [Compound 39]
IC50: 0.05 to 0.1 µM
//
Compound: CC(=O)N1CCOC(C(=O)N[C@@H](CCCCN)C(=O)c2nc3ccccc3s2)C1 (some centres unmarked) [Compound 29]
IC50: 0.01 to 0.025 µM
//
Compound: CC(=O)N1CCC[C@H](C(=O)N[C@H](CCCCN)C(=O)c2nc3ccccc3s2)C1 [Compound 10]
IC50: 0.01 to 0.025 µM
//
Compound: NCCCC[C@H](NC(=O)c1cncs1)C(=O)c1nc2ccccc2s1 [Compound 38]
IC50: 0.01 to 0.025 µM
//
Compound: NCCCC[C@H](NC(=O)[C@H]1CCCN(C(=O)CCc2ccccc2)C1)C(=O)c1nc2ccccc2s1 [Compound 3]
IC50: 0.01 to 0.025 µM
//
Compound: NCCCC[C@H](NC(=O)C1CCCC1)C(=O)COc1c(F)c(F)cc(F)c1F [Compound 43]
IC50: < 0.001 µM

Reference source: patent US11332464B2
